test system: NCI-H23 lung; assay: NCI tumour cell line growth inhibition, 48 h
Observable: TGI (µM)
Enter your answer as a number in µM; do not include the unit.

Sample answers from the record:
>>> number("COc1ccc2c(c1)CCc1[nH]nc(-c3cc(OC)c(OC)c(OC)c3)c1-2")
3.53
>>> number("CC(=O)Nc1ccc(-c2nnc(SCC(=O)Nc3cccc([N+](=O)[O-])c3)o2)cc1")
21.2
>>> number("CCOc1cc2c(cc1O)CC[C@@H]1[C@@H]2CC[C@]2(C)C(OS(=O)OC3CC[C@@H]4[C@H]5CCc6cc(O)c(OCC)cc6[C@@H]5CC[C@@]34C)CC[C@@H]12 (stereo not given in full)")
14

Proceeding to the next compound to report its TGI.
Per the reported NCI-H23 lung data, COC(=O)[C@@]12OC[C@]34C([C@@H](O)C1O)[C@@]1(C)CC(=O)C(O)=C(C)C1C[C@H]3OC(=O)[C@H](OC(=O)/C=C(/c1ccccc1)C(F)(F)F)[C@H]42 (stereo not given in full) has TGI of 6.73
